Answer each item with its documented pIC50.
- assay.method.text: cells
- condition.details: Homo sapiens, MCF-10A, read-out: MCF10A IC50
pIC50: −log10 of the molar value.

| compound | pIC50 |
| --- | --- |
| O=C(Nc1cc(-c2ccc[nH]c2=O)cc2c1C(c1cc(F)ccc1Cl)NC2=O)c1cc(F)cc(C(F)(F)F)c1 (centres unmarked) | > 6.00 |
| Cc1ccccc1C1NC(=O)c2cc(N)cc(NC(=O)c3nsc4ccccc34)c21 (centres unmarked) | > 6.00 |
| Cc1nocc1Nc1cc(NC(=O)c2cc(F)cc(C(F)(F)F)c2)c2c(c1)C(=O)NC2c1cc(F)ccc1Cl (centres unmarked) | > 6.00 |
| Cc1ccccc1[C@@H]1NC(=O)c2cc(C(=O)NCC(F)F)cc(NC(=O)c3nsc4ccccc34)c21 | > 6.00 |

Turning now to a further record.
Recorded pIC50 (compound O=C(Nc1cc(-c2cn3ccnc3cn2)cc2c1C(c1cc(F)ccc1Cl)NC2=O)c1cc(F)cc(C(F)(F)F)c1 (centres unmarked) ): > 6.00

---

What pIC50 was measured for each of the following?
- subject.of.test: H1047R PIK3CA enzyme (Homo sapiens, UniProt P42336, H1047R)
- Sequence (P42336 whole entry H1047R): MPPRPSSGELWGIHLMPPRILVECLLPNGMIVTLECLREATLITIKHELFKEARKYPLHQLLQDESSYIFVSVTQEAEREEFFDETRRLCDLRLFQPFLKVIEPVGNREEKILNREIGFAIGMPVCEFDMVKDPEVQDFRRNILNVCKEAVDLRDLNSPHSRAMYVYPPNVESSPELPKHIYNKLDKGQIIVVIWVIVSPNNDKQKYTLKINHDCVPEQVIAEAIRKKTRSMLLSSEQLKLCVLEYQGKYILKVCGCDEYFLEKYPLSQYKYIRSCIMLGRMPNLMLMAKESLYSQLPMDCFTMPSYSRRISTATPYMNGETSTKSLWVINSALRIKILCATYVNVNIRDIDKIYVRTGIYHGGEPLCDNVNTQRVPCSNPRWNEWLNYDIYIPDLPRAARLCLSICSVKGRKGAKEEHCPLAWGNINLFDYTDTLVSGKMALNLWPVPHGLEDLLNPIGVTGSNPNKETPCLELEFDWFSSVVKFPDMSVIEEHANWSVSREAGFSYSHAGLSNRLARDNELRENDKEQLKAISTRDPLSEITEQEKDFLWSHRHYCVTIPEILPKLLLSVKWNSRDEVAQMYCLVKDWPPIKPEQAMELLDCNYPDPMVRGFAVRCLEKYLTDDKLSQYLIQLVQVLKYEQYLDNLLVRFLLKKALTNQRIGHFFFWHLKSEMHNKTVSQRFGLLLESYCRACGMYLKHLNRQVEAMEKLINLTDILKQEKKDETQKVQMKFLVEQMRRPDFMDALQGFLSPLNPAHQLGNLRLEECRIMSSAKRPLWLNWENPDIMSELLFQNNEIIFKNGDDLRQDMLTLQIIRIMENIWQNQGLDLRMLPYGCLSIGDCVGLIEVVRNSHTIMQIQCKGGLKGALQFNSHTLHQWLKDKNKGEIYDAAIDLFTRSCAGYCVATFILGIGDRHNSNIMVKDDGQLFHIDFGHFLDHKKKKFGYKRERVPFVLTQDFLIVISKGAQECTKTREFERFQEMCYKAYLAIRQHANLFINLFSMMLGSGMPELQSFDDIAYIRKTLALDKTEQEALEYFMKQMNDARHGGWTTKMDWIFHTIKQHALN
- Sequence (P27986 whole entry partner): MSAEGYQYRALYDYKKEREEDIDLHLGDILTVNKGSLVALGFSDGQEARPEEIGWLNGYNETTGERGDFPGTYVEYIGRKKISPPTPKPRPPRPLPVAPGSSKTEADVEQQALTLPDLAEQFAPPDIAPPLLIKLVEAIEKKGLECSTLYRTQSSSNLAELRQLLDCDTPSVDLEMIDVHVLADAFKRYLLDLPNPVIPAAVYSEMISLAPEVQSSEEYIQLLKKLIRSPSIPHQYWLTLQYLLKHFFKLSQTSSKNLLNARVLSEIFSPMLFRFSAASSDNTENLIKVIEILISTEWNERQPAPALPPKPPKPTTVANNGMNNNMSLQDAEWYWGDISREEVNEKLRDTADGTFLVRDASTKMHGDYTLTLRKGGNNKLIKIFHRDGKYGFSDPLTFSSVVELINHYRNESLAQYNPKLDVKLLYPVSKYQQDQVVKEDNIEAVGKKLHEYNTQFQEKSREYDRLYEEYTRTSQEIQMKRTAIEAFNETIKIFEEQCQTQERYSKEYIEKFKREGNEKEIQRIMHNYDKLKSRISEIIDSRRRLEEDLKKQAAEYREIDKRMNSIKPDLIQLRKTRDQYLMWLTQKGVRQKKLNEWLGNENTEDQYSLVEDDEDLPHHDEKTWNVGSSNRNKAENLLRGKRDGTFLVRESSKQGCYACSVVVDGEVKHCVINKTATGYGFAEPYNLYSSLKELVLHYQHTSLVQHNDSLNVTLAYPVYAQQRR
- assay.method.text: ADP-Glo Biochemical PIK3CA Kinase Assay
pIC50: −log10 of the molar value.

Would you mind listing pIC50 for each of the following molecules?
1. N#Cc1cnc2ccc(-c3cc(NC(=O)c4cc(F)cc(C(F)(F)F)c4)c4c(c3)C(=O)NC4c3cc(F)ccc3Cl)cn12 (stereo not drawn)
2. O=C(Cc1ccccc1)Nc1cc(-c2ccc3ncnn3c2)cc2c1C(c1cc(F)ccc1Cl)NC2=O (stereo not drawn)

Completion:
["≥ 7.00", "4.00 to 5.00"]

pIC50 measured on CC1CN(C(=O)Nc2cc(Br)cc3c2C(c2cc(F)ccc2Cl)NC3=O)CCN1C (racemic) = 4.00 to 5.00

---

Could you please report measured IC50 for the items listed next?
- subject.of.test: H1047R PIK3CA enzyme (Homo sapiens, UniProt P42336, H1047R)
- assay.method.text: ADP-Glo Biochemical PIK3CA Kinase Assay

| compound | IC50 |
| --- | --- |
| O=C(Nc1cc(-c2cnc3ncnn3c2)cc2c1C(c1cc(F)ccc1Cl)NC2=O)c1cc(F)cc(C(F)(F)F)c1 (stereo not shown) [Compound I-969] | ≤ 100 nM |
| O=C(Nc1cc(Cl)cc2c1C(c1cc(F)ccc1Cl)NC2=O)c1cc(F)cc(C(F)(F)F)c1 (stereo not shown) [Compound I-688] | ≤ 100 nM |
| Cc1ccccc1C1NC(=O)c2cccc(NC(=O)c3cccc(C(F)(F)F)c3)c21 (stereo not shown) [Compound I-435] | 1000 to 10000 nM |
| O=C(Nc1cccc2c1C(c1cc(F)ccc1Cl)NC2=O)c1ncc(Br)s1 (stereo not shown) [Compound I-2112] | 10000 to 100000 nM |
| O=C(Nc1cccc2c1[C@H](C1CC1)NC2=O)c1cc(F)cc(C(F)(F)F)c1 (single isomer, unassigned) [Compound I-2221] | 10000 to 100000 nM |

# batch: return IC50 for each of the 2 compounds below
1. O=C(Nc1cc(-c2cnn3ncnc3c2)cc2c1[C@@H](c1cc(F)ccc1Cl)NC2=O)c1cc(F)cc(C(F)(F)F)c1 [Compound I-1871]
2. Cn1nccc1Nc1cc(NC(=O)c2cc(F)cc(C(F)(F)F)c2)c2c(c1)C(=O)NC2c1cc(F)ccc1Cl (stereo not shown) [Compound I-922]

Completion:
100 to 500 nM
≤ 100 nM
